- measurement_notes: Quantitative High-Throughput drug screen in 47 multiple myeloma cell lines against the NCATS MIPE library collection: KMS20_JCRB cell viability assay (AID 1918973); further: nearly all actives have a fitted effect of over 45% in size
- experimental_parameters: CellTiter-Glo ATP, 48 h; series mostly up to 45.8 µM
Inconclusive results are not listed. The source made the active and inactive calls. The call rests on the fitted dose curve; in most records, active means well fitted cell-killing curve with a large enough effect; inconclusive means small, poorly fitted or top-dose-only effect, or effect the other way; inactive means no such curve, though single readings can be large or run the other way.
Outcome codes: TRUE (active), FALSE (inactive)

{"compound": "O=C(O)c1cccc(-c2noc(-c3ccccc3F)n2)c1", "category": "FALSE"}
{"compound": "CC(C)C[C@H](NC(=O)[C@H](Cc1ccccc1)NC(=O)c1cnccn1)B(O)O", "category": "TRUE"}
{"compound": "O=c1oc2cc(O)ccc2s1", "category": "FALSE"}
{"compound": "Cc1cc(C2CCCCC2)n(O)c(=O)c1", "category": "TRUE"}
{"compound": "CCN(CC)CCOc1ccc(Nc2ncc3cc(-c4c(Cl)cccc4Cl)c(=O)n(C)c3n2)cc1", "category": "TRUE"}
{"compound": "C[C@H](Cn1cnc2c(N)ncnc21)OCP(=O)(O)O", "category": "FALSE"}
{"compound": "O=Nc1c(-c2c(O)[nH]c3cc(Br)ccc23)[nH]c2ccccc12", "category": "TRUE"}
{"compound": "CCOC(=O)C1=C[C@@H](OC(CC)CC)[C@H](NC(C)=O)[C@@H](N)C1", "category": "FALSE"}
{"compound": "CCN(CC)C(=S)SSC(=S)N(CC)CC", "category": "TRUE"}
{"compound": "Cc1nc2n(c(=O)c1CCN1CCC(c3noc4cc(F)ccc34)CC1)CCCC2", "category": "FALSE"}
{"compound": "Cc1ccc(S(=O)(=O)NC(=O)NN2CC3CCCC3C2)cc1 (configuration not stated)", "category": "TRUE"}
{"compound": "O=c1ccc2ccc(O)c(O)c2o1", "category": "TRUE"}
